Tested on: IFN-γ
EXPERIMENTAL_PROTOCOL: IFN-γ levels in sera upon i.v. glycolipid administration to BALB/c mice (ELISA)
Format: in vivo
Parameters: unit not given here
CONDITION_SET: BALB/c, serum, hour 24
Description: Five- to six-week-old female C57BL/6 mice and BALB/c mice were purchased from Taconic. Each glycolipid was stored at 1 mg/ml in 100% DMSO. […] At indicated time points, sera were collected from each animal, and concentrations of IFN-γ, IL-4, and IL-12 in the sera were evaluated by enzyme-linked immunosorbent assay (ELISA). Serum concentrations of IFN-γ, IL-4, and IL-12 were evaluated using an ELISA kit (eBioscience, San Diego, Calif.). […]
READOUT_LABEL: IFN-γ levels, test 1

- CCCCCCCCCCCCCCCCCC/C=C/CCCCCCCCC(=O)N[C@@H](/C=C/[C@H]1O[C@H](CO)[C@H](O)[C@H](O)[C@H]1O)[C@H](O)[C@H](O)CCCCCCCCCCCCCC: 16100
- CCCCCCCCCCCCCC[C@@H](O)[C@@H](O)[C@H](CC[C@H]1O[C@H](CO)[C@H](O)[C@H](O)[C@H]1O)NC(=O)CCCCCCCCCCCCCCCCCCCOCCCCC: 8738
- CCCCCCCCCCCCCCCCCCCCCCCCCC(=O)N[C@@H](CO[C@H]1O[C@H](CO)[C@H](O)[C@H](O)[C@H]1O)[C@H](O)[C@H](O)CCCCCCCCCCCCCC [KRN, reference compound]: 6497
- CCCCCCCCCCCCCC[C@@H](O)[C@@H](O)[C@H](CC[C@H]1O[C@H](CO)[C@H](O)[C@H](O)[C@H]1O)NC(=O)CCCCCCCCCCCCCCCCCCCOCCCCCC: 14000
- CCCCCCCCCCCCCCCCC/C=C/CCCCCCCCC(=O)N[C@@H](CC[C@H]1O[C@H](CO)[C@H](O)[C@H](O)[C@H]1O)[C@H](O)[C@H](O)CCCCCCCCCCCCCC: 14100
- CCCCCCCCCCCCCCCCCCCCCCCCCC(=O)N[C@@H](CC[C@H]1O[C@H](CO)[C@H](O)[C@H](O)[C@H]1O)[C@H](O)[C@H](O)CCCCCCCCCCCCCC [CRONY, reference compound]: 11900
- CCCCCCCCCCCCCCCCCCCCCCCCCCCCC(=O)N[C@@H](/C=C/[C@H]1O[C@H](CO)[C@H](O)[C@H](O)[C@H]1O)[C@H](O)[C@H](O)CCCCCCCCCCCCCC: 16500
